The origin of these recorded values is patent US20250066388A1.

Experiment: Bioavailability study: pharmacokinetics after single intravenous or oral dose in mouse
Assay type: in vivo
Conditions: male, CD-1; IV (1 mg/kg), mouse plasma, mean; read-out: CLP (converted)
property_name: clearance

// query clearance value for entry CO[C@@H]1CC[C@@H](CNc2ccc(S(=O)(=O)NC(=O)c3ccc(N4CCN5CC6=C(c7ccc(Cl)cc7)CC(C)(C)C[C@H]6OCCCOC[C@@H]5C4)cc3N3CCCOc4nc5[nH]ccc5cc43)cc2[N+](=O)[O-])OC1 1.28 mL/min/kg

====

Consider compounds characterized by their pKi with Bcl-xL protein (Homo sapiens (Human), UniProt Q07817).
Sequence (Q07817 other isoform, or with tags, fused parts or gaps): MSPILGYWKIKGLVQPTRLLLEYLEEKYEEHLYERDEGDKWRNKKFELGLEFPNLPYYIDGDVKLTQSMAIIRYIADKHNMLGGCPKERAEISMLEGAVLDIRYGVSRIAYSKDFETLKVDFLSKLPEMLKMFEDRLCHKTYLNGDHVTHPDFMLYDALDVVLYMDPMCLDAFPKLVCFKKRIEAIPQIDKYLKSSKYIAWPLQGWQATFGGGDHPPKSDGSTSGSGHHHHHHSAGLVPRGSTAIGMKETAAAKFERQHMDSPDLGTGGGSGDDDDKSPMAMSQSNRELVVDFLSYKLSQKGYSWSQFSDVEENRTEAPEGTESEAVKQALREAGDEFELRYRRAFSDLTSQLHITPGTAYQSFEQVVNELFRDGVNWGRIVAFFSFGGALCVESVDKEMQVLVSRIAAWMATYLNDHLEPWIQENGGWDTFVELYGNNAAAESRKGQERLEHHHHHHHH
Lab note — pKi values are minus log10 of concentrations in M.

Give Bcl-xL protein (Homo sapiens (Human), UniProt Q07817) pKi for CC1(C)CC(c2ccc(Cl)cc2)=C2CN3CCN(c4ccc(C(=O)NS(=O)(=O)c5ccc(NC[C@H]6C[C@](O)(C7CCC7)C6)c([N+](=O)[O-])c5)c(N5CCCOc6nc7[nH]ccc7cc65)c4)C[C@H]3COCCCO[C@@H]2C1 7.86

Let us now turn to COC1(CNc2ccc(S(=O)(=O)NC(=O)c3ccc(N4CCN5CC6=C(c7ccc(Cl)cc7)CC(C)(C)C[C@H]6OCCCOC[C@@H]5C4)cc3N3CCCOc4nc5[nH]ccc5cc43)cc2[N+](=O)[O-])CCOCC1 7.39

Repeat for the following compound: COC1CO[C@H](CNc2ccc(S(=O)(=O)NC(=O)c3ccc(N4CCN5CC6=C(c7ccc(Cl)cc7)CC(C)(C)C[C@H]6OCCCOC[C@@H]5C4)cc3N3CCCOc4nc5[nH]ccc5cc43)cc2[N+](=O)[O-])C1 (stereo partly shown) 7.65

COCCN1CCC(F)(COc2ncc(S(=O)(=O)NC(=O)c3ccc(N4CCN5CC6=C(c7ccc(Cl)cc7)CC(C)(C)C[C@H]6OCCCOC[C@@H]5C4)cc3N3CCCOc4nc5[nH]ccc5cc43)cc2Cl)CC1 , same question. 7.83

====

Molecular target: Bcl-xL protein (Homo sapiens (Human), UniProt Q07817)
property_name: pKi
Please report pKi as the negative decimal logarithm of the molar concentration, giving only the number.

Look up pKi: CC1(C)CC(c2ccc(Cl)cc2)=C2CN3CCN(c4ccc(C(=O)NS(=O)(=O)c5ccc(NCC6(O)CCOCC6)c([N+](=O)[O-])c5)c(N5CCCOc6nc7[nH]ccc7cc65)c4)C[C@H]3COCCCO[C@@H]2C1 8.08

Lookup CC1(C)CC(c2ccc(Cl)cc2)=C2CN3CCN(c4ccc(C(=O)NS(=O)(=O)c5ccc(NC[C@@H]6CC[C@@H](O)CO6)c([N+](=O)[O-])c5)c(N5CCCOc6nc7[nH]ccc7cc65)c4)C[C@H]3COCCCO[C@@H]2C1 8.13

====

Target: Bcl-xL protein (Homo sapiens (Human), UniProt Q07817)
Please go through the items and note down their Ki.
Write it as a number; the unit nM goes unstated.

Record request: Ki value, item COCCO[C@H]1CC[C@H](CNc2ccc(S(=O)(=O)NC(=O)c3ccc(N4CCN5CC6=C(c7ccc(Cl)cc7)CC(C)(C)C[C@H]6OCCCOC[C@@H]5C4)cc3N3CCCOc4nc5[nH]ccc5cc43)cc2[N+](=O)[O-])OC1 [Example 35] 23.1

Subsequent entry: CO[C@H]1C[C@@H](CNc2ccc(S(=O)(=O)NC(=O)c3ccc(N4CCN5CC6=C(c7ccc(Cl)cc7)CC(C)(C)C[C@H]6OCCCOC[C@@H]5C4)cc3N3CCCOc4nc5[nH]ccc5cc43)cc2[N+](=O)[O-])C1 [Example 24] 10.3

For CC1(C)CC(c2ccc(Cl)cc2)=C2CN3CCN(c4ccc(C(=O)NS(=O)(=O)c5ccc(NC[C@H]6CC[C@H](O)CO6)c([N+](=O)[O-])c5)c(N5CCCOc6nc7[nH]ccc7cc65)c4)C[C@H]3COCCCO[C@@H]2C1 [Example 12] then? 6.13

Same lookup for CO[C@H]1C[C@H](Nc2ccc(S(=O)(=O)NC(=O)c3ccc(N4CCN5CC6=C(c7ccc(Cl)cc7)CC(C)(C)C[C@H]6OCCCOC[C@@H]5C4)cc3N3CCCOc4nc5[nH]ccc5cc43)cc2[N+](=O)[O-])C1 [Example 30] , please. 39

Try the compound CC1(C)CC(c2ccc(Cl)cc2)=C2CN3CCN(c4ccc(C(=O)NS(=O)(=O)c5cnc(OC[C@]6(F)CC[C@@H](N7CCOCC7)CC6)c(Cl)c5)c(N5CCCOc6nc7[nH]ccc7cc65)c4)C[C@H]3COCCCO[C@@H]2C1 [Example 10] 5.91

Same for CC1(C)CC(c2ccc(Cl)cc2)=C2CN3CCN(c4ccc(C(=O)NS(=O)(=O)c5ccc(OCC6(F)CCN(C7COC7)CC6)c(Cl)c5)c(N5CCCOc6nc7[nH]ccc7cc65)c4)C[C@H]3COCCCO[C@@H]2C1 [Example 9] 20.6

Please do the same for CO[C@H]1CC[C@H](CNc2ccc(S(=O)(=O)NC(=O)c3ccc(N4CCN5CC6=C(c7ccc(Cl)cc7)CC(C)(C)C[C@H]6OCCCOC[C@@H]5C4)cc3N3CCCOc4nc5[nH]ccc5cc43)cc2[N+](=O)[O-])OC1 [Example 13] as well. 6.8

Ok, now CC1(C)CC(c2ccc(Cl)cc2)=C2CN3CCN(c4ccc(C(=O)NS(=O)(=O)c5ccc(NC[C@H]6CC[C@@](C)(O)CC6)c([N+](=O)[O-])c5)c(N5CCCOc6nc7[nH]ccc7cc65)c4)C[C@H]3COCCCO[C@@H]2C1 [Example 36] 11.1

Try CC1(C)CC(c2ccc(Cl)cc2)=C2CN3CCN(c4ccc(C(=O)NS(=O)(=O)c5ccc(NCC6(O)COC6)c([N+](=O)[O-])c5)c(N5CCCOc6nc7[nH]ccc7cc65)c4)C[C@H]3COCCCO[C@@H]2C1 [Example 17] next. 6.31

Continue with CC1(C)CC(c2ccc(Cl)cc2)=C2CN3CCN(c4ccc(C(=O)NS(=O)(=O)c5ccc(NCC6CCOCC6)c([N+](=O)[O-])c5)c(N5CCCOc6nc7[nH]ccc7cc65)c4)C[C@H]3COCCCO[C@@H]2C1 [Example 1] 19.4

====

Biological target: UniProt Q07817
Assay: TR-FRET binding assay, Bcl-xL
Conditions: F-Bak peptide probe
property_name: Ki (nM)
The response must be a number in nM with no trailing unit.

For the record CN1CCC(Nc2ccc(S(=O)(=O)NC(=O)c3ccc(N4CCN5CC6=C(c7ccc(Cl)cc7)CC(C)(C)C[C@H]6OCCCOC[C@@H]5C4)cc3N3CCCOc4nc5[nH]ccc5cc43)cc2[N+](=O)[O-])CC1 , what value of Ki is listed for UniProt Q07817? 5.75

Cool, now CO[C@H]1CC[C@H](COc2ccc(S(=O)(=O)NC(=O)c3ccc(N4CCN5CC6=C(c7ccc(Cl)cc7)CC(C)(C)C[C@H]6OCCCOC[C@@H]5C4)cc3N3CCCOc4nc5[nH]ccc5cc43)cc2[N+](=O)[O-])OC1 28.6

Query CC1(C)CC(c2ccc(Cl)cc2)=C2CN3CCN(c4ccc(C(=O)NS(=O)(=O)c5ccc(NC[C@H]6CC[C@H](N7CCOCC7)CC6)c([N+](=O)[O-])c5)c(N5CCCOc6nc7[nH]ccc7cc65)c4)C[C@H]3COCCCO[C@@H]2C1 next 4.71

Repeat for the following molecule: CO[C@H]1CC[C@H](CNc2ccc(S(=O)(=O)NC(=O)c3ccc(N4CCN5CC6=C(c7ccc(Cl)cc7)CC(C)(C)C[C@H]6OCCCOC[C@@H]5C4)cc3N3CCCOc4nc5[nH]ccc5cc43)cc2[N+](=O)[O-])CC1 20

How about this molecule: CO[C@@H]1CC[C@@H](CNc2ccc(S(=O)(=O)NC(=O)c3ccc(N4CCN5CC6=C(c7ccc(Cl)cc7)CC(C)(C)C[C@H]6OCCCOC[C@@H]5C4)cc3N3CCCOc4nc5[nH]ccc5cc43)cc2[N+](=O)[O-])OC1 13.6
